Each recorded value in this set is attributed to patent US9862730B2.

Target: PAR4 (Homo sapiens (Human), UniProt Q96RI0)
Sequence (Q96RI0 18-385): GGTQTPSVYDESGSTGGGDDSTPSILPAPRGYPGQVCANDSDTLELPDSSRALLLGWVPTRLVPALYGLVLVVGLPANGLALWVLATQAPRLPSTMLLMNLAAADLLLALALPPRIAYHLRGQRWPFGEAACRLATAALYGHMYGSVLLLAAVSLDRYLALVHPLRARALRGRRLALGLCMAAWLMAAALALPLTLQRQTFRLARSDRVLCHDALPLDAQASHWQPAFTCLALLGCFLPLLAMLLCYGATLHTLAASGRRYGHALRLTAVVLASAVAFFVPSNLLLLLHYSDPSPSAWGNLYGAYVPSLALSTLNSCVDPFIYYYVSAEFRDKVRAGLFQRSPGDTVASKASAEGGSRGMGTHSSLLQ
Assay: FLIPR assay in PAR4-expressing HEK293 cells (PAR4 antagonist activity, calcium mobilization)
Assay type: cell-based
Conditions: FLIPR assay as described in Example A
Classification scheme (IC50): Low: < 30 nM; Medium: ≥ 30 nM and < 500 nM; High: ≥ 500 nM

Reference set (5 entries):
compound="COc1cc(Br)c2oc(-c3cn4nc(SC)sc4n3)cc2c1 [Example 283]" label_class=High
compound="COc1nn2cc(-c3cc4ccc(O)cc4o3)nc2s1 [Example 108]" label_class=Medium
compound="COc1nn2cc(-c3cc4cccc(OC)c4o3)nc2s1 [Example 35]" label_class=Low
compound="COc1cc(OCc2cccc(OCc3ccnc(Cl)c3)c2)c2cc(-c3cn4nc(OC)sc4n3)oc2c1 [Example 320]" label_class=Low
compound="COc1cc(OC)c2cc(-c3cn4nc(C(C)(F)F)sc4n3)oc2c1 [Example 242]" label_class=Medium

Query block: Entry CSc1nn2cc(-c3nc4ccc(OCc5ccccc5)cc4o3)nc2s1 [Example 115] belongs to which category?
Result block: Medium

Query block: Now the same for COc1nn2cc(-c3nc4cc(Cl)ccc4o3)nc2s1 [Example 130]
Result block: Medium

Query block: Now the same for COc1cc(OCc2ccccc2)c2cc(-c3cn4nc(C(C)(F)F)sc4n3)oc2c1 [Example 265]
Result block: Low

Query block: Now the same for CCc1nn2cc(-c3nc4ccc(OCCCc5ccccc5)cc4o3)nc2s1 [Example 78]
Result block: High

* * *

compounds and their reported pIC50
Molecular target: PAR4 (Homo sapiens (Human), UniProt Q96RI0)
Assay: FLIPR assay in PAR4-expressing HEK293 cells (PAR4 antagonist activity, calcium mobilization)
Type: cell-based
Settings: FLIPR assay as described in Example A
On this scale, pIC50 is minus log10 of a concentration expressed in M (mol/L).

These solved cases illustrate the format of a correct answer.
chemical_structure=Cc1cc2oc(-c3cn4nc(C(C)(F)F)sc4n3)cc2cc1Cl endpoint_value=5.71
chemical_structure=CC(F)(F)c1nn2cc(-c3cc4cc(Cl)ccc4o3)nc2s1 endpoint_value=6.80

Query block: May I ask what pIC50 has been recorded for CC(F)(F)c1nn2cc(-c3nc4ccccc4s3)nc2s1 ?
Result block: 6.20

Query block: Now the same for CSc1nn2cc(-c3nc4ccc(N)cc4o3)nc2s1
Result block: 6.15

Query block: Now the same for CCc1nn2cc(-c3nc4ccc(Cl)cc4o3)nc2s1
Result block: 6.91

Query block: Now the same for COc1cc(OC)c2cc(-c3cn4nc(C(C)(F)F)sc4n3)oc2c1Br
Result block: 6.52

* * *

Biological target: UniProt:Q96RI0
Assay: FLIPR assay in PAR4-expressing HEK293 cells (PAR4 antagonist activity, calcium mobilization)
Assay type: cell-based
Conditions: FLIPR assay as described in Example A
Source text: The FLIPR assay is an exemplary in vitro assay for measuring the activity of the PAR4 antagonists of the present invention. In this assay, intracellular calcium mobilization is induced in PAR4 expressing cells by a PAR4 agonist and calcium mobilization is monitored. See, e.g., Example A. […]
pIC50: −log10 of the molar value.
Label rule, in plain words: pIC50 of 8 and up is 1 (yes), under 8 is 0 (no).

Reference set (5 entries):
chemical_structure=COc1nn2cc(-c3nc4ccc(F)cc4s3)nc2s1 label_class="1 (yes)"
chemical_structure=CSc1nn2cc(-c3nc4c(OC[C@@H]5CCCN5C(=O)OC(C)(C)C)cccc4o3)nc2s1 label_class="0 (no)"
chemical_structure=CSc1nn2cc(-c3nc4c(OCc5cccc(C#N)c5)cccc4o3)nc2s1 label_class="0 (no)"
chemical_structure=COc1cc(Cl)cc(COc2cccc(COc3cc(OC)cc4oc(-c5cn6nc(OC)sc6n5)cc34)c2)c1 label_class="1 (yes)"
chemical_structure=CSc1nn2cc(-c3cc4ccc(C)cc4o3)nc2s1 label_class="0 (no)"

Query block: Can COc1nn2cc(-c3cc4c(OCc5cccc(OCc6ccccc6)c5)cc(OC)c(Cl)c4o3)nc2s1 be said to have pIC50 at or above 8?
Result block: 0 (no)

Query block: Now the same for COc1ccc2cc(-c3cn4nc(OC)sc4n3)oc2c1
Result block: 1 (yes)

Query block: Now the same for COc1cc(OCc2cccc(OCc3ccccc3)c2)c2cc(-c3cn4nc(Br)sc4n3)oc2c1
Result block: 1 (yes)

* * *

molecules and their reported pIC50
Target: PAR4 (Homo sapiens (Human), UniProt Q96RI0)
Assay: FLIPR assay in PAR4-expressing HEK293 cells (PAR4 antagonist activity, calcium mobilization)
Format: cell-based
Conditions: FLIPR assay as described in Example A
On this scale, pIC50 is minus log10 of a concentration expressed in M (mol/L).

These solved cases illustrate the format of a correct answer.
chemical_structure=COc1ccc2c(C)c(-c3cn4nc(SC)sc4n3)oc2c1 system_name="PAR4 (Homo sapiens (Human), UniProt Q96RI0)" endpoint_value=7.86
chemical_structure=COc1cc(OCc2ccc(F)cc2)c2cc(-c3cn4nc(OC)sc4n3)oc2c1 system_name="PAR4 (Homo sapiens (Human), UniProt Q96RI0)" endpoint_value=8.25
chemical_structure=CCc1nn2cc(-c3cc4cccc(OCC#N)c4o3)nc2s1 system_name="PAR4 (Homo sapiens (Human), UniProt Q96RI0)" endpoint_value=6.83
chemical_structure=COc1cc(OCc2cccc(OCc3cccc(Cl)c3)c2)c2cc(-c3cn4nc(OC)sc4n3)oc2c1 system_name="PAR4 (Homo sapiens (Human), UniProt Q96RI0)" endpoint_value=9.49
chemical_structure=CSc1nn2cc(-c3nc4c(OCc5ccccc5)cccc4o3)nc2s1 system_name="PAR4 (Homo sapiens (Human), UniProt Q96RI0)" endpoint_value=6.65

Query block: May I ask what pIC50 has been recorded for COc1nn2cc(-c3nc4c(Cl)cccc4s3)nc2s1 ?
Result block: 6.10

Query block: Now the same for COc1cc(OCc2cccc(OC(=O)c3ccccc3)c2)c2cc(-c3cn4nc(OC)sc4n3)oc2c1
Result block: 8.78

Query block: Now the same for CSc1nn2cc(-c3nc4ccc(OCc5cccc(C#N)c5)cc4o3)nc2s1
Result block: 6.21

* * *

Molecular target: PAR4 (Homo sapiens (Human))
Experiment: FLIPR assay in PAR4-expressing HEK293 cells (PAR4 antagonist activity, calcium mobilization)
Format: cell-based
Conditions: FLIPR assay as described in Example A
compounds and their reported IC50
Report as a plain number; the unit µM is understood.

These solved cases illustrate the format of a correct answer.
compound="COc1ccc2oc(-c3cn4nc(SC)sc4n3)c(C)c2c1 [Example 24]" unit_abbreviation=µM endpoint_value=0.696
compound="COc1nn2cc(-c3cc4c(OCc5ccccc5)cc(OCc5ccccc5)cc4o3)nc2s1 [Example 255]" unit_abbreviation=µM endpoint_value=0.113
compound="Clc1cc(Cl)c2cc(-c3cn4nc(Br)sc4n3)oc2c1 [Example 288]" unit_abbreviation=µM endpoint_value=0.0941
compound="CCCOc1cccc2cc(-c3cn4nc(CC)sc4n3)oc12 [Example 56]" unit_abbreviation=µM endpoint_value=0.601

Query block: Form field: IC50 recorded for CSc1nn2cc(-c3nc4ccc(C)cc4s3)nc2s1 [Example 190] with PAR4 (Homo sapiens (Human)) (enter value)
Result block: 0.204

Query block: Now the same for COc1nn2cc(-c3cc4c(OCc5cccc(OCc6ccccc6)c5)cc(Cl)cc4o3)nc2s1 [Example 414]
Result block: 0.00517

Query block: Now the same for CSc1nn2cc(-c3cc4c(Cl)nccc4o3)nc2s1 [Example 221]
Result block: 0.0125

* * *

Target: PAR4 (Homo sapiens (Human))
Experiment: FLIPR assay in PAR4-expressing HEK293 cells (PAR4 antagonist activity, calcium mobilization)
Type: cell-based
Details: FLIPR assay as described in Example A
compounds and their reported pIC50
On this scale, pIC50 is minus log10 of a concentration expressed in M (mol/L).

chemical_structure=CSc1nn2cc(-c3nc4ccc(OCc5ccc(C(F)(F)F)cc5)cc4o3)nc2s1 endpoint_value=6.46
chemical_structure=COc1nn2cc(-c3cc4c(OCc5cccc(OCc6ccccc6)c5)cc(O)cc4o3)nc2s1 endpoint_value=8.11
chemical_structure=COc1cc(OCc2cccc(OCc3ccc(OC)c(OC)c3Cl)c2)c2cc(-c3cn4nc(OC)sc4n3)oc2c1 endpoint_value=8.87

Now, please, on to the next compound.
Query block: May I ask what pIC50 has been recorded for COc1ccc(OC)c2oc(-c3cn4nc(SC)sc4n3)cc12 ?
Result block: 7.94

* * *

Target: PAR4 (Homo sapiens (Human), UniProt Q96RI0)
Experiment: FLIPR assay in PAR4-expressing HEK293 cells (PAR4 antagonist activity, calcium mobilization)
Format: cell-based
Details: FLIPR assay as described in Example A
QUANTITY_KIND: pIC50
On this scale, pIC50 is minus log10 of a concentration expressed in M (mol/L).

These solved cases illustrate the format of a correct answer.
chemical_structure=COc1nn2cc(-c3cc4ccc(C)c(C)c4o3)nc2s1 endpoint_value=6.27
chemical_structure=CC(F)(F)c1nn2cc(-c3nc4c(Cl)cccc4s3)nc2s1 endpoint_value=5.33
chemical_structure=COCCOc1cccc2oc(-c3cn4nc(Br)sc4n3)cc12 endpoint_value=6.92

Now, please, on to the next molecule.
Query block: May I ask what pIC50 has been recorded for CCOC(=O)CCCOc1cccc2cc(-c3cn4nc(CC)sc4n3)oc12 ?
Result block: 6.21
